test: Phase 1 multiple ascending dose (MAD) pharmacokinetics, 14 days once daily; assay type: in vivo, human; conditions: human, plasma, oral, MAD Day 14, across 1-20 mg/kg/day; read-out: CL/F, range of geometric mean values
observed_property: CL/F

The compound identified as C[C@@H]1C[C@H]2[C@@H]3CCC4=CC(=O)C=C[C@]4(C)C3=CC[C@]2(C)[C@@]1(O)C(=O)CO [vamorolone] registered its CL/F at 1.26 to 2.15 L/h/kg

---

assay: Phase 1 single ascending dose (SAD) pharmacokinetics, fasted; type: in vivo, human; details: male, human, plasma; single oral 20 mg/kg, fasted; geometric mean (%CV); read-out: Vz/F
observed_property: Vd/F (L/kg)
// return numeric value only (unit: L/kg, not printed)

The molecule identified as `C[C@@H]1C[C@H]2[C@@H]3CCC4=CC(=O)C=C[C@]4(C)C3=CC[C@]2(C)[C@@]1(O)C(=O)CO` registered its Vd/F at 14.2

// provenance: paper PMC6136660
